# assay-details: in vivo
# settings: male, SD-JCL, rat, topical or ocular
quantity-name: AUC(0-t) (ng·h/mL)
Express your answer in ng·h/mL, writing the number without its unit.

Prompt: Input CCNC(=O)[C@@H]1CCCN1C(=O)[C@H](CCCNC(=N)N)NC(=O)[C@H](CC(C)C)NC(=O)[C@@H](CC(C)C)NC(=O)[C@H](Cc1ccc(O)cc1)NC(=O)[C@H](CO)NC(=O)[C@H](Cc1c[nH]c2ccccc12)NC(=O)[C@H](Cc1c[nH]cn1)NC(=O)[C@@H]1CCC(=O)N1 [TAP-144] , output reported AUC(0-t).
Completion: 0.5
